Please provide measured pEC50 for the entries that follow.
system: hypoxia-inducible endogenous VEGF expression in HeLa cells; test: Hypoxia-inducible endogenous VEGF expression, VEGF ELISA of conditioned media (dose-response EC50); assay type: cell-based; conditions: Homo sapiens, HeLa cells, hypoxic conditions (1% O2)
pEC50: −log10 of the molar value.

Hello, I would appreciate it if you could give pEC50 for each entry below.
1. COc1ccc(OC(=O)N2CCc3c([nH]c4ccc(Cl)cc34)C2c2cnc(N(C)C)nc2)cc1 (stereo not shown) [Compound 445]
2. COc1ccc(C2c3[nH]c4ccc(Cl)cc4c3CCN2C(=O)Oc2ccccc2Cl)cc1 (stereo not shown) [Compound 587]

Out:
7.40 to 8.10
6.70 to 7.40

Go through the list and state pEC50 for each entry.
1. CN(C)CCCOc1ccc(C2c3[nH]c4ccc(Cl)cc4c3CCN2C(=O)OCCF)cc1 (stereo not shown) [Compound 456]
2. O=C(CN1CCOCC1)Nc1ccc(C2c3[nH]c4ccc(Cl)cc4c3CCN2C(=O)Oc2ccc(Cl)cc2)cc1 (stereo not shown) [Compound 454]

Out:
7.40 to 8.10
7.40 to 8.10

###

system: hypoxia-inducible endogenous VEGF expression in HeLa cells; experiment: Hypoxia-inducible endogenous VEGF expression, VEGF ELISA of conditioned media (dose-response EC50); type: cell-based; conditions: Homo sapiens, HeLa cells, hypoxic conditions (1% O2)
pEC50: −log10 of the molar value.
PARAMETER: pEC50

CCOC(=O)N1CCc2c([nH]c3ccc(Br)cc23)C1c1ccc(CNCCOC)cc1 (stereo not shown) [Compound 420] | > 8.10
CC(C)C(=O)Nc1ccc(C2c3[nH]c4ccc(Cl)cc4c3CCN2C(=O)Oc2ccc(Cl)cc2)cc1 (stereo not shown) [Compound 482] | 6.70 to 7.40
COCCOc1ccc(C2c3[nH]c4ccc(Cl)cc4c3CCN2C(=O)OCc2ccccc2)cc1 (stereo not shown) [Compound 419] | > 8.10

For each entry beneath this line, provide reported pEC50.
1. O=C(Oc1ccc(F)cc1)N1CCc2c([nH]c3ccc(Cl)cc23)C1c1ccc(OCCCCl)cc1 (stereo not shown) [Compound 712]
2. O=C(Oc1ccc(F)cc1)N1CCc2c([nH]c3ccc(Cl)cc23)C1c1ccc(OCC(O)CO)cc1 (stereo not shown) [Compound 627]
3. CC(C)(C)CC1NCCc2c1[nH]c1ccc(Cl)cc21 (stereo not shown) [Compound 565]
4. O=C(Oc1ccccc1)N1CCc2c([nH]c3ccc(Cl)cc23)C1c1ccc(OCCCCl)cc1 (stereo not shown) [Compound 710]
5. CC(=O)Oc1ccc(C2c3[nH]c4ccc(Cl)cc4c3CCN2C(=O)Oc2ccc(Cl)cc2)cc1 (stereo not shown) [Compound 463]

Out:
1. > 8.10
2. > 8.10
3. < 6.00
4. > 8.10
5. 7.40 to 8.10

Batch request: pEC50 per item, same order as input.
1. CCOC(=O)N1CCc2c([nH]c3ccc(Cl)cc23)C1CC(C)C (stereo not shown) [Compound 472]
2. CC(C)C1NCCc2c1[nH]c1ccc(Cl)cc21 (stereo not shown) [Compound 477]
3. CCOC(=O)N1CCc2c([nH]c3ccc(Br)cc23)C1c1ccc(C(=O)N2CCN(CCCN(C)C)CC2)cc1 (stereo not shown) [Compound 560]
4. CCOC(=O)N1CCc2c([nH]c3ccc(Br)cc23)C1c1cnc(NC)nc1 (stereo not shown) [Compound 496]
5. CC(C)NCCCCOc1ccc(C2c3[nH]c4ccc(Cl)cc4c3CCN2C(=O)Oc2ccc(Cl)cc2)cc1 (stereo not shown) [Compound 700]

Out:
1. 7.40 to 8.10
2. 6.70 to 7.40
3. < 6.00
4. 6.70 to 7.40
5. 7.40 to 8.10

For each of the molecules below, state pEC50.
1. CC/C=C/CCC1c2[nH]c3ccc(Cl)cc3c2CCN1C(=O)OCC (stereo not shown) [Compound 439]
2. C=CCOc1ccc(C2c3[nH]c4ccc(Cl)cc4c3CCN2C(=O)OCc2ccccc2)cc1 (stereo not shown) [Compound 412]
3. CN1CCN(CCCCCCOc2ccc(C3c4[nH]c5ccc(Cl)cc5c4CCN3C(=O)Oc3ccc(F)cc3)cc2)CC1 (stereo not shown) [Compound 778]

Out:
1. > 8.10
2. > 8.10
3. > 8.10
